B1: MYBL2 (parent)
chain: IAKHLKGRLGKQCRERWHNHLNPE

# Variants of: B1
# Test Summary: protein stability index of a GFP-peptide fusion (GPS, HEK-293T) (PSI 1-6); higher = more stable;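 note: lentivirally expressed fusions sorted by FACS into six bins by GFP to DsRed ratio, PSI derived from sequencing read proportions per bin multiplied by bin number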
# Conditions Used: c terminus: a fixed tail appended
Label rule, in plain words: protein stability index of 2 and up is rule met, under 2 is rule not met.

Illustrative cases are given below, each with its answer.
Decide: is the reported value of protein stability index for `E24Q` equal to or greater than 2?
rule not met

Decide: is the reported value of protein stability index for `H20V` equal to or greater than 2?
rule met

Decide: is the reported value of protein stability index for `R14Y` equal to or greater than 2?
rule met

Decide: is the reported value of protein stability index for `W17C` equal to or greater than 2?
rule met

Decide: is the reported value of protein stability index for `L21N` equal to or greater than 2?
rule met

Next:
Decide: is the reported value of protein stability index for `A2S` equal to or greater than 2?
rule met

Decide: is the reported value of protein stability index for `L5A` equal to or greater than 2?
rule met

Decide: is the reported value of protein stability index for `H4F` equal to or greater than 2?
rule met

Decide: is the reported value of protein stability index for `A2C` equal to or greater than 2?
rule not met

Decide: is the reported value of protein stability index for `C13H` equal to or greater than 2?
rule met
